protein stability index for assorted variants
B1: CASP6 (parent)
chain: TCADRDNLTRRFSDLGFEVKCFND

variants of: B1; experiment: protein stability index of a GFP-peptide fusion (GPS, HEK-293T) (PSI 1-6); higher = more stable; conditions: c terminus: a fixed tail appended;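 also: lentivirally expressed fusions sorted by FACS into six bins by GFP to DsRed ratio, PSI derived from sequencing read proportions per bin multiplied by bin number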

C21Y    2.97
N7A    2.89
K20Y    2.2
K20L    3
V19K    3.94

protein stability index lookup needed for C2W , thanks.
2.36

Ok, now G16W
1.93

Ok, now C21V
2.67

Ok, now R11I
2.47

Ok, now N23I
2.49

Ok, now F12I
2.98

Values compiled from the supplement of paper PMC10567573.
